- TARGET_SYSTEM: recombinant human Estrogen Receptor alpha ligand binding domain, residues 307-554 (ER alpha-LBD (GST)) (Homo sapiens, UniProt P03372)
- ASSAY_DETAILS: ERα binding assay (LanthaScreen TR-FRET competition)
- MEASUREMENT_CONTEXT: TR-FRET competition with Fluormone ES2 tracer, 4 hours at room temperature; single experiment or average of two or more
pIC50: −log10 of the molar value.
Listed below: pIC50 values for each entry.

| COMPOUND | pIC50 |
| --- | --- |
| Cc1ncsc1-c1ccc([C@H](C)NC(=O)[C@@H]2C[C@@H](O)CN2C(=O)[C@@H](NC(=O)COCCCOCCCOc2cc(F)c([C@@H]3c4[nH]c5ccccc5c4C[C@@H](C)N3CC(C)(C)F)c(F)c2)C(C)(C)C)cc1 [Example 152] | 9.30 |
| Cc1ncsc1-c1ccc([C@H](C)NC(=O)[C@@H]2C[C@@H](O)CN2C(=O)[C@@H](NC(=O)C(F)(F)OCCCOCCCOc2cc(F)c([C@@H]3c4[nH]c5ccccc5c4C[C@@H](C)N3CC(C)(C)F)c(F)c2)C(C)(C)C)cc1 [Example 120] | 9.05 |
| Cc1ncsc1-c1ccc(CNC(=O)[C@@H]2C[C@@H](O)CN2C(=O)[C@@H](NC(=O)COCCCOCCCCOc2cc(F)c([C@@H]3c4[nH]c5ccccc5c4C[C@@H](C)N3CC(C)(C)F)c(F)c2)C(C)(C)C)cc1 [Example 129] | 9.00 |
| Cc1ncsc1-c1ccc(CNC(=O)[C@@H]2C[C@@H](O)CN2C(=O)[C@@H](NC(=O)CCCCN2CCN(CCOc3cc(F)c([C@@H]4c5[nH]c6ccccc6c5C[C@@H](C)N4CC(C)(C)F)c(F)c3)CC2)C(C)(C)C)cc1 [Example 102] | 9.22 |

* * *

- TARGET_SYSTEM: recombinant human Estrogen Receptor alpha ligand binding domain, residues 307-554 (ER alpha-LBD (GST)) (Homo sapiens)
- Construct: made in house
- ASSAY_DETAILS: ERα binding assay (LanthaScreen TR-FRET competition)
- MEASUREMENT_CONTEXT: TR-FRET competition with Fluormone ES2 tracer, 4 hours at room temperature; single experiment or average of two or more
Where a name gives a salt, the structure may show the parent alone.

| MOLECULE | IC50 [nM] |
| --- | --- |
| Cc1ncsc1-c1ccc(CNC(=O)[C@@H]2C[C@@H](OC(=O)[C@H](C)NC(=O)[C@@H](N)C(C)C)CN2C(=O)[C@@H](NC(=O)COCCOCCOCCOc2cc(F)c([C@@H]3c4[nH]c5ccccc5c4C[C@@H](C)N3CC(C)(C)F)c(F)c2)C(C)(C)C)cc1 [Example 100, Formate] | 0.8 |
| Cc1ncsc1-c1ccc(CNC(=O)[C@@H]2C[C@@H](O)CN2C(=O)[C@@H](NC(=O)COCCOCCC(F)(F)CCOc2cc(F)c([C@@H]3c4[nH]c5ccccc5c4C[C@@H](C)N3CC(C)(C)F)c(F)c2)C(C)(C)C)cc1 [Example 127] | 0.5 |
| Cc1ncsc1-c1ccc(CNC(=O)[C@@H]2C[C@@H](O)CN2C(=O)[C@@H](NC(=O)COCCOCCOCCOCCOCC(=O)Nc2ccc([C@@H]3c4[nH]c5ccccc5c4C[C@@H](C)N3CC(C)(C)F)cc2)C(C)(C)C)cc1 [Example 56, Trifluoroacetic Acid] | 20 |
| Cc1ncsc1-c1ccc(CNC(=O)[C@@H]2C[C@@H](O)CN2C(=O)[C@@H](NC(=O)CCCCCCCCOc2cc(F)c([C@@H]3c4[nH]c5ccccc5c4C[C@@H](C)N3CC(C)(C)F)c(F)c2)C(C)(C)C)cc1 [Example 15] | 1.5 |

* * *

Listed below: IC50 values for each entry.
- TARGET_SYSTEM: recombinant human Estrogen Receptor alpha ligand binding domain, residues 307-554 (ER alpha-LBD (GST)) (Homo sapiens, UniProt P03372)
- ASSAY_DETAILS: ERα binding assay (LanthaScreen TR-FRET competition)
- MEASUREMENT_CONTEXT: TR-FRET competition with Fluormone ES2 tracer, 4 hours at room temperature; single experiment or average of two or more
TEST_READOUT: IC50 (nM)

| SMILES_NOTATION | REPORTED_MEASUREMENT |
| --- | --- |
| Cc1ncsc1-c1ccc([C@@H](CN(C)C)NC(=O)[C@@H]2C[C@@H](O)CN2C(=O)[C@@H](NC(=O)COCCOCCOCCOc2cc(F)c([C@@H]3c4[nH]c5ccccc5c4C[C@@H](C)N3CC(C)(C)F)c(F)c2)C(C)(C)C)cc1 | 4 |
| Cc1ncsc1-c1ccc(CNC(=O)[C@@H]2C[C@@H](O)CN2C(=O)[C@@H](NC(=O)COCC(F)(F)COCCCOc2cc(F)c([C@@H]3c4[nH]c5ccccc5c4C[C@@H](C)N3CC(C)(C)F)c(F)c2)C(C)(C)C)cc1 | 1 |
| Cc1ncsc1-c1ccc(CNC(=O)[C@@H]2C[C@@H](O)CN2C(=O)[C@@H](NC(=O)COCCCCC(=O)N(C)CCOc2cc(F)c([C@@H]3c4[nH]c5ccccc5c4C[C@@H](C)N3CC(C)(C)F)c(F)c2)C(C)(C)C)cc1 | 1.1 |
| Cc1ncsc1-c1ccc([C@H](C)NC(=O)[C@@H]2C[C@@H](O)CN2C(=O)[C@@H](NC(=O)COCCOCCOCCOc2cc(F)c([C@@H]3c4[nH]c5ccccc5c4C[C@@H](C)N3CC(C)(C)F)c(F)c2)C(C)(C)C)cc1 | 0.8 |

* * *

- TARGET_SYSTEM: Estrogen Receptor (ERα) in MCF-7 human ductal carcinoma breast cell line (Homo sapiens, UniProt P03372)
- Construct: endogenous in cells; host or cells: MCF-7
- Sequence (P03372 whole entry): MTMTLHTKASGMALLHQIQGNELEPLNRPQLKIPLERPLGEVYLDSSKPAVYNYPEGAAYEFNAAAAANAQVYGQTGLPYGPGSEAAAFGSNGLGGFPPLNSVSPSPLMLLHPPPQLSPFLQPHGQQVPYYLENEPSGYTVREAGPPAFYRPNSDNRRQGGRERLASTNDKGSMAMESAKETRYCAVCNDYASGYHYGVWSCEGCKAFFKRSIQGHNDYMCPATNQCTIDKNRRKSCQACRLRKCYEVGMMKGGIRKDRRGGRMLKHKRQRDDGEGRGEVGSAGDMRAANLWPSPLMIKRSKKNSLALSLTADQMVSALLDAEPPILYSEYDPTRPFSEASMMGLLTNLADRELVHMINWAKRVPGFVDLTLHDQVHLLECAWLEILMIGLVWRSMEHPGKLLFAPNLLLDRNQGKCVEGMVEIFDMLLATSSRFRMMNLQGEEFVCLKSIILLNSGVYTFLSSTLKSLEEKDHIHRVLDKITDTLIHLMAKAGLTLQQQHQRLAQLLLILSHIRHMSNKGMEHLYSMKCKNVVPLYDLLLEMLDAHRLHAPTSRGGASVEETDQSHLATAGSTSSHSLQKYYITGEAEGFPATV
- ASSAY_DETAILS: MCF-7 ER degradation assay (cell based immuno-fluorescence)
- MEASUREMENT_CONTEXT: MCF-7 cells, 0.3 μM; ER degradation by fulvestrant at 0.3 μM is defined as 100%
- Protocol: MCF-7 ER Degradation Assay The ability of compounds to down-regulate Estrogen Receptor (ER) numbers was assessed in a cell based immuno-fluorescence assay using the MCF-7 human ductal carcinoma breast cell line. […] Cells were syringed once using a sterile 18 G×1.5 inch (1.2×40 mm) broad gauge needle and cell density was measured using a Coulter Counter (Beckman). […]
Structures can show the parent of a compound that is named as a salt.
TEST_READOUT: ER degradation ≥ 90% at 0.3 μM

| MOLECULE | REPORTED_MEASUREMENT |
| --- | --- |
| Cc1ncsc1-c1ccc(CNC(=O)[C@@H]2C[C@@H](OC(=O)[C@H](C)NC(=O)[C@@H](N)C(C)C)CN2C(=O)[C@@H](NC(=O)COCCOCCOCCOc2cc(F)c([C@@H]3c4[nH]c5ccccc5c4C[C@@H](C)N3CC(C)(C)F)c(F)c2)C(C)(C)C)cc1 [Example 100, Formate] | •• |
| Cc1ncsc1-c1ccc([C@@H](CN(C)C)NC(=O)[C@@H]2C[C@@H](O)CN2C(=O)[C@@H](NC(=O)COCCOCCOCCOc2cc(F)c([C@@H]3c4[nH]c5ccccc5c4C[C@@H](C)N3CC(C)(C)F)c(F)c2)C(C)(C)C)cc1 [Example 107] | •• |
| Cc1ncsc1-c1ccc([C@H](C)NC(=O)[C@@H]2C[C@@H](O)CN2C(=O)[C@@H](NC(=O)COCCOCCOCCOc2cc(F)c([C@@H]3c4[nH]c5ccccc5c4C[C@@H](C)N3CC(C)(C)F)c(F)c2)C(C)(C)C)cc1 [Example 3] | •• |
| Cc1ncsc1-c1ccc(CNC(=O)[C@@H]2C[C@@H](O)CN2C(=O)[C@@H](NC(=O)c2cnn(CCOCCNC(=O)/C=C/c3cc(F)c([C@@H]4c5[nH]c6ccccc6c5C[C@@H](C)N4CC(C)(C)F)c(F)c3)c2)C(C)(C)C)cc1 [Example 64, Trifluoroacetic Acid] | • |
| Cc1ncsc1-c1ccc(CNC(=O)[C@@H]2C[C@@H](O)CN2C(=O)[C@@H](NC(=O)CCCCCCCCCOc2cc(F)c([C@@H]3c4[nH]c5ccccc5c4C[C@@H](C)N3CC(C)(C)F)c(F)c2)C(C)(C)C)cc1 [Example 11] | •• |
| Cc1ncsc1-c1ccc(CNC(=O)[C@@H]2C[C@@H](O)CN2C(=O)[C@@H](NC(=O)COC[C@@H]2CC2COCCOc2cc(F)c([C@@H]3c4[nH]c5ccccc5c4C[C@@H](C)N3CC(C)(C)F)c(F)c2)C(C)(C)C)cc1 (single isomer, unassigned) [Example 124] | • |
| Cc1ncsc1-c1ccc(CNC(=O)[C@@H]2C[C@@H](O)CN2C(=O)[C@@H](NC(=O)COCCCCCCCOc2ccc([C@@H]3c4[nH]c5ccccc5c4C[C@@H](C)N3CC(F)F)nc2)C(C)(C)C)cc1 [Example 6] | •• |
| Cc1ncsc1-c1ccc(CNC(=O)[C@@H]2C[C@@H](O)CN2C(=O)[C@@H](NC(=O)COCc2ccc(COc3cc(F)c([C@@H]4c5[nH]c6ccccc6c5C[C@@H](C)N4CC(C)(C)F)c(F)c3)cn2)C(C)(C)C)cc1 [Example 86] | •• |
